MEASURED TARGET: TEAD1 TAZ (amino acids 13-57) (Homo sapiens)
Sequence (P28347 167-426 limits assumed): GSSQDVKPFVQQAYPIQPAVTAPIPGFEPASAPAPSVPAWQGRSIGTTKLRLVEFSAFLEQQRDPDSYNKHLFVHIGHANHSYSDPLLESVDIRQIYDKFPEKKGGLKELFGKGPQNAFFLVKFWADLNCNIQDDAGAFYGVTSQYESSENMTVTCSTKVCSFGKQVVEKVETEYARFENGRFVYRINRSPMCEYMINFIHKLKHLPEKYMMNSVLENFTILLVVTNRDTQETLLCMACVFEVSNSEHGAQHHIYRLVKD
PROTOCOL: TEAD1-TAZ HTRF (TR-FRET) protein-protein interaction assay
Assay type: binding
CONDITION LABEL: TEAD1, TAZ peptide, HTRF
Property: TEAD1 TAZ HTRF combined: Max % Inhibition; scope: individual compounds
Please state the figure in %; there is no need to write the unit.

Before answering, review these 2 worked examples.
INSERT INTO assay_data (compound, measurement_units, reading) VALUES
  ('Cc1nccnc1-c1nn2c(=O)cc(-c3ccc(C4CCCCC4)cc3)[nH]c2c1C(=O)N(C)C', '%', 63.0),
  ('Cc1nccnc1-c1nn2c(=O)cc(-c3ccc(OC(c4ccccc4)C(F)(F)F)cc3)[nH]c2c1C(=O)N1C[C@H](CF)[C@@H]1C (single isomer, unassigned) [Final product obtained using Enantiomer B from Step 1, Example 56]', '%', 60.5);

Exercise: TEAD1 TAZ (amino acids 13-57) (Homo sapiens) / TEAD1 TAZ HTRF combined: Max % Inhibition / O=C(c1c(-c2ncccn2)nn2c(=O)cc(-c3ccc(C4CCCCC4)cc3)[nH]c12)N1CC(CF)C1 : value?
Key: 64.0

Exercise: # value lookup — system TEAD1 TAZ (amino acids 13-57) (Homo sapiens), readout TEAD1 TAZ HTRF combined: Max % Inhibition, item C[C@H](CO)c1nn2c(=O)cc(-c3ccc(C4CCCCC4)cc3)[nH]c2c1C(=O)N1CC(CF)C1 (single isomer, unassigned) [Enantiomer A, Example 55]
Key: 44.0

Exercise: Lab note: need TEAD1 TAZ HTRF combined: Max % Inhibition for CC1CCN1C(=O)c1nn2c(=O)cc(-c3ccc(C4CCCCC4)cc3)[nH]c2c1C(=O)N1CC(CF)C1 (single isomer, unassigned) [Enantiomer A, Example 33] on TEAD1 TAZ (amino acids 13-57) (Homo sapiens), anyone have it?
Key: 61.5

Exercise: Hello, I am looking for reported TEAD1 TAZ HTRF combined: Max % Inhibition with TEAD1 TAZ (amino acids 13-57) (Homo sapiens) for CN(C)C(=O)c1nn2c(=O)cc(-c3ccc(C4CCCCC4)c(F)c3)[nH]c2c1C(=O)N1CC(CF)C1 . Could you help?
Key: 59.0

###

MEASURED TARGET: TEAD2 TAZ (amino acids 13-57) (Homo sapiens, UniProt Q15562)
Sequence (Q15562 217-447): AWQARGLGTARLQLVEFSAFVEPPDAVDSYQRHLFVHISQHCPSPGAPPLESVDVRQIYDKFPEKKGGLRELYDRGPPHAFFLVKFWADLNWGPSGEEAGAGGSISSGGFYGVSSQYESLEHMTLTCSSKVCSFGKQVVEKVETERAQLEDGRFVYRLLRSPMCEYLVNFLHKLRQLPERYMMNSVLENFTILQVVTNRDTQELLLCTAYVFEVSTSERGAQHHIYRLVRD
PROTOCOL: TEAD2-TAZ HTRF (TR-FRET) protein-protein interaction assay
CONDITION LABEL: TEAD2-TAZ HTRF, TR-FRET 665 nm/615 nm; read-out: TEAD2 TAZ HTRF combined: EC50
READOUT NAME: EC50
State the value with its unit after it.

Consider the reported EC50 for these compounds:
INSERT INTO assay_data (compound, measured_target, reading) VALUES
  ('Cc1nccnc1-c1nn2c(=O)cc(-c3ccc(CC(C)(C)C)cc3)[nH]c2c1C(=O)N1C[C@H](CF)[C@@H]1C (racemic) [Compound 73]', 'TEAD2 TAZ (amino acids 13-57) (Homo sapiens, UniProt Q15562)', '20 nM'),
  ('O=C(c1c(-c2nccnc2C(F)(F)F)nn2c(=O)cc(-c3ccc(C4CCCCC4)cc3)[nH]c12)N1CC(CF)C1 [Compound 7]', 'TEAD2 TAZ (amino acids 13-57) (Homo sapiens, UniProt Q15562)', '30 nM'),
  ('Cc1nccnc1-c1nn2c(=O)cc(-c3ccc(C4CCCCC4)cc3)[nH]c2c1C(=O)N1C[C@@H](CF)[C@H]1C (single isomer, unassigned) [Isomer A, Example 41]', 'TEAD2 TAZ (amino acids 13-57) (Homo sapiens, UniProt Q15562)', '50 nM'),
  ('C[C@@H]1[C@H](CF)CN1C(=O)c1c(-c2ncccn2)nn2c(=O)cc(-c3ccc(CC4CCCC4)cc3)[nH]c12 (single isomer, unassigned) [Isomer B, Example 43]', 'TEAD2 TAZ (amino acids 13-57) (Homo sapiens, UniProt Q15562)', '20 nM'),
  ('CC1CCN1C(=O)c1nn2c(=O)cc(-c3ccc(C4CCCCC4)cc3)[nH]c2c1C(=O)N1CC(CF)C1 (single isomer, unassigned) [Enantiomer B, Example 33]', 'TEAD2 TAZ (amino acids 13-57) (Homo sapiens, UniProt Q15562)', '20 nM'),
  ('O=C(c1c(-c2ncccn2)nn2c(=O)cc(-c3ccc(C4(C5CCCC5)CC4)cc3)[nH]c12)N1CC(CF)C1 [Compound 57]', 'TEAD2 TAZ (amino acids 13-57) (Homo sapiens, UniProt Q15562)', '10 nM');

Exercise: For the compound shown here, Cc1nccnc1-c1nn2c(=O)cc(-c3ccc(O[C@@H](c4ccccc4)C(F)(F)F)cc3)[nH]c2c1C(=O)N1CC(CF)C1 [Compound 67] , give the reported EC50.
Key: 50 nM

Exercise: Would you kindly share the measured EC50 for Cc1nccnc1-c1nn2c(=O)cc(-c3ccc(OC(c4ccccc4)C(F)(F)F)cc3)[nH]c2c1C(=O)N1C[C@H](CF)[C@@H]1C (single isomer, unassigned) [Final product obtained using Enantiomer B from Step 1, Example 56] ?
Key: 70 nM

Exercise: Entry under review: C[C@H]1[C@@H](CF)CN1C(=O)c1c(-c2ncccn2)nn2c(=O)cc(-c3ccc(C4CCCCC4)cc3)[nH]c12 (single isomer, unassigned) [Isomer B, Example 40] . Reported EC50?
Key: 120 nM

Exercise: Please report the recorded EC50 for Cc1cncc(-c2nn3c(=O)cc(-c4ccc(C5CCCCC5)cc4)[nH]c3c2C(=O)N2CC(CF)C2)n1 [Compound 28] .
Key: 10 nM

Exercise: Would you mind telling me what EC50 value was observed for O=C(c1c(-c2cnccn2)nn2c(=O)cc(-c3ccc(C4CCCCC4)c(F)c3)[nH]c12)N1CC(CF)C1 [Compound 23] ?
Key: 10 nM

###

MEASURED TARGET: TEAD2 TAZ (amino acids 13-57) (Homo sapiens, UniProt Q15562)
PROTOCOL: TEAD2-TAZ HTRF (TR-FRET) protein-protein interaction assay
Format: binding
CONDITION LABEL: TEAD2, TAZ peptide, HTRF
Record MET whenever TEAD2 TAZ HTRF combined: Max % Inhibition is at 70% or higher; record NOT MET when lower.

// below: answered compounds
INSERT INTO assay_data (compound, answer_label) VALUES
  ('Cc1nccnc1-c1nn2c(=O)cc(-c3ccc(C4CCCCC4)cc3)[nH]c2c1C(=O)N(C)C [Compound 20]', 'NOT MET'),
  ('Cc1nccnc1-c1nn2c(=O)cc(-c3ccc(C4CCCCC4)cc3)[nH]c2c1C(=O)N1C[C@@H](CF)[C@H]1C (single isomer, unassigned) [Isomer A, Example 41]', 'NOT MET');

Exercise: Evaluate [2H]C1([2H])C([2H])([2H])C([2H])([2H])C([2H])(c2ccc(-c3cc(=O)n4nc(-c5nccnc5C)c(C(=O)N5C[C@H](CF)[C@@H]5C)c4[nH]3)cc2)C([2H])([2H])C1([2H])[2H] [Compound 72] : TEAD2 TAZ HTRF combined: Max % Inhibition at minimum 70%?
Key: MET

###

Attribute: TEAD2 TAZ HTRF combined: Max % Inhibition
MEASURED TARGET: TEAD2 TAZ (amino acids 13-57) (Homo sapiens)
PROTOCOL: TEAD2-TAZ HTRF (TR-FRET) protein-protein interaction assay
Assay type: binding
CONDITION LABEL: TEAD2, TAZ peptide, HTRF
Express the result in % but write the number alone.

Worked cases, answers included:
INSERT INTO measurements (compound, reading) VALUES
  ('C[C@@H]1[C@H](CF)CN1C(=O)c1c(-c2ncccn2)nn2c(=O)cc(-c3ccc(C4CCCCC4)cc3)[nH]c12 (single isomer, unassigned) [Isomer A, Example 40]', 70.5),
  ('N#Cc1nccnc1-c1nn2c(=O)cc(-c3ccc(C4CCCCC4)cc3)[nH]c2c1C(=O)N1CC(CF)C1', 54.0),
  ('Cc1nccnc1-c1nn2c(=O)cc(-c3ccc(CC(C)(C)C)cc3)[nH]c2c1C(=O)N1C[C@H](CF)[C@@H]1C (racemic)', 68.5),
  ('Cc1nccnc1-c1nn2c(=O)cc(-c3ccc(OC(c4ccccc4)C(F)(F)F)cc3)[nH]c2c1C(=O)N1C[C@H](CF)[C@@H]1C (single isomer, unassigned) [Final product obtained using Enantiomer A from Step 1, Example 56]', 89.0);

Exercise: What value of TEAD2 TAZ HTRF combined: Max % Inhibition has been reported for the following compound? C[C@H]1[C@@H](CF)CN1C(=O)c1c(-c2ncccn2)nn2c(=O)cc(-c3ccc(C4CCCCC4)cc3)[nH]c12 (single isomer, unassigned) [Isomer B, Example 40]
Key: 78.5
